Target: Human full-length SHP2 recombinant protein (Homo sapiens (Human), UniProt Q06124)
Test: Assay of full-length SHP2 phosphatase activity
Conditions: DiFMUP substrate, with activating peptide
MEASURED ATTRIBUTE: IC50 (nM)

Cc1nc(N2CCC3(CC2)Cc2ccc(C#C[C@@H](C)O)cc2[C@H]3N)cc(=O)n1-c1cccc(Cl)c1Cl; 44

1. CNC(=O)C#Cc1ccc2c(c1)[C@@H](N)C1(CCN(c3cc(=O)n(-c4ccc(F)c(OC)c4Cl)c(C)n3)CC1)C2 (atropisomer, axis not shown) [Compound 201]
2. CC#Cc1ccc2c(c1)[C@@H](N)C1(CCN(c3ncc(Sc4ccnc(N)c4Cl)c(N)n3)CC1)C2
3. COCC#Cc1cc(F)c2c(c1)[C@@H](N)C1(CCN(c3ncc(Sc4ccnc(N)n4)c4nccn34)CC1)C2
4. CNC(=O)C#Cc1ccc2c(c1)[C@@H](N)C1(CCN(c3cnc(Sc4cc(N)nc(Cl)c4Cl)cn3)CC1)C2
In: With regard to IC50, arrange the entries in ascending order, please. Provide the labels, sequenced as the question asks.
Out: 1, 4, 3, 2
(1: 1 nM, 4: 3 nM, 3: 6 nM, 2: 25 nM)
